system: Yellow Fever Mosquito (Aedes aegypti, AEDSAE) ("YFM"); assay: Bioassays on YFM, 96-well plate larval assay; type: in vivo; conditions: about 1 day-old larvae, from 4000 ppm DMSO master plate diluted, room temperature, scored after 3 days
MEASURED ENDPOINT: YFM % Control (or Mortality) rating

As a guide, the following entries are already answered.
Entry under review: CC(C)c1ccccc1NC(=S)NCCCc1ccc(-c2ncn(-c3ccc(OC(F)(F)F)cc3)n2)cc1 . Reported YFM % Control (or Mortality) rating?
A (80-100)

Requested read-out: YFM % Control (or Mortality) rating. Entry: CSc1ccccc1-c1ccccc1NC(=O)Nc1ccc(-c2ncn(-c3ccc(OC(F)(F)F)cc3)n2)cc1
A (80-100)

// query YFM % Control (or Mortality) rating value for entry CC(C)c1ccccc1N(C(=O)Nc1ccc(-c2ncn(-c3ccc(OC(F)(F)F)cc3)n2)cc1)C(N)=S
A (80-100)

Please report the recorded YFM % Control (or Mortality) rating for FC(F)(F)Oc1ccc(-n2cnc(-c3ccc(NC(=S)Nc4ccccc4-c4noc(C5CC5)n4)cc3)n2)cc1 .
A (80-100)

Batch lookup, YFM % Control (or Mortality) rating per entry.
1. COc1cccc(NC(=O)NCCCc2ccc(-c3ncn(-c4ccc(OC(F)(F)F)cc4)n3)cc2)c1
2. O=C(NCc1ccc(-c2ncn(-c3ccc(OC(F)(F)F)cc3)n2)cc1)Nc1cccc(Cl)c1
3. O=C(Nc1ccc(-c2ncn(-c3ccc(OC(F)(F)F)cc3)n2)cc1)Nc1ccccc1N1CCOCC1
4. O=C(NCCCc1ccc(-c2ncn(-c3ccc(OC(F)(F)F)cc3)n2)cc1)Nc1cccc(Cl)c1

1: A (80-100); 2: A (80-100); 3: A (80-100); 4: A (80-100)

Batch of 3 compounds: report YFM % Control (or Mortality) rating for each.
1. O=C(Nc1ccc(-c2ncn(-c3ccc(OC(F)(F)F)cc3)n2)cc1)Nc1ccccc1-c1ccccc1
2. CC(C)c1ccccc1NC(=S)NCc1ccc(-c2ncn(-c3ccc(OC(F)(F)F)cc3)n2)cc1
3. CCc1ccccc1-c1ccccc1NC(=O)Nc1ccc(-c2ncn(-c3ccc(OC(F)(F)F)cc3)n2)cc1

["A (80-100)", "A (80-100)", "A (80-100)"]

###

test system: Cabbage Looper (Trichoplusia ni, TRIPNI) ("CL"); test: Bioassays on CL, 128-well diet tray assay; assay type: in vivo; details: 168 h, second instar larvae, 50 μg/cm^2 on artificial diet, 25° C., five to seven days, average of eight wells, read-out: CL % Control (or Mortality) rating
What mortality at 50 µg/cm2 was measured for each of the following?

Recorded results for 4 compounds are shown here.
mortality at 50 µg/cm2 for C#Cc1ccccc1NC(=O)Nc1ccc(-c2ncn(-c3ccc(OC(F)(F)F)cc3)n2)cc1 ?
50 to 100%

Can you look up the measured mortality at 50 µg/cm2 of Cc1ccccc1-c1ccccc1NC(=O)NCCCc1ccc(-c2ncn(-c3ccc(OC(F)(F)F)cc3)n2)cc1 for me?
50 to 100%

Sample CC(C)c1ccccc1NC(=O)NCc1ccc(-c2ncn(-c3ccc(OC(F)(F)F)cc3)n2)cc1 — what was its mortality at 50 µg/cm2?
50 to 100%

Using the record for C=C(C)c1ccccc1NC(=O)Nc1ccc(-c2ncn(-c3ccc(OC(F)(F)F)cc3)n2)cc1 , report its mortality at 50 µg/cm2.
50 to 100%

Batch of 3 compounds: report mortality at 50 µg/cm2 for each.
1. COc1ccc(NC(=O)NCCCc2ccc(-c3ncn(-c4ccc(OC(F)(F)F)cc4)n3)cc2)c(C)c1
2. Cc1ccccc1NC(=O)NCc1ccc(-c2ncn(-c3ccc(OC(F)(F)F)cc3)n2)cc1
3. Cc1cccc(NC(=O)NCc2ccc(-c3ncn(-c4ccc(OC(F)(F)F)cc4)n3)cc2)c1

0%
0%
0%

Respectfully, I request mortality at 50 µg/cm2 for each entry included below.
1. O=C(NCCCc1ccc(-c2ncn(-c3ccc(OC(F)(F)F)cc3)n2)cc1)Nc1ccccc1-c1ccccc1
2. O=C(Nc1ccc(-c2ncn(-c3ccc(OC(F)(F)F)cc3)n2)cc1)Nc1ccccc1C1CC1

1. 50 to 100%
2. 50 to 100%

Look at each compound and report its mortality at 50 µg/cm2.
1. CC(C)n1cnnc1-c1ccccc1NC(=O)Nc1ccc(-c2ncn(-c3ccc(OC(F)(F)F)cc3)n2)cc1
2. COc1ccccc1NC(=O)NCCCCc1ccc(-c2ncn(-c3ccc(OC(F)(F)F)cc3)n2)cc1
3. COc1ccc(NC(=O)NCCCCc2ccc(-c3ncn(-c4ccc(OC(F)(F)F)cc4)n3)cc2)cc1
4. O=C(NCCCCc1ccc(-c2ncn(-c3ccc(OC(F)(F)F)cc3)n2)cc1)Nc1ccc(Cl)cc1
5. CSc1ccccc1-c1cccnc1NC(=S)Nc1ccc(-c2ncn(-c3ccc(OC(F)(F)F)cc3)n2)cc1
6. CC(C)CC(C)c1ccccc1NC(=O)Nc1ccc(-c2ncn(-c3ccc(OC(F)(F)F)cc3)n2)cc1 (centres unmarked)
7. O=C(Nc1ccc(-c2ncn(-c3ccc(OC(F)(F)F)cc3)n2)cc1)Nc1ccccc1-n1cccc1

50 to 100%
50 to 100%
0%
50 to 100%
50 to 100%
50 to 100%
50 to 100%

###

test system: Yellow Fever Mosquito (Aedes aegypti, AEDSAE) ("YFM"); assay: Bioassays on YFM, 96-well plate larval assay; format: in vivo; conditions: about 1 day-old larvae, from 4000 ppm DMSO master plate diluted, room temperature, scored after 3 days
MEASURED ENDPOINT: YFM % Control (or Mortality) rating

Endpoint output: YFM % Control (or Mortality) rating of Cc1ccc(C(C)C)c(NC(=S)NCCCc2ccc(-c3ncn(-c4ccc(OC(F)(F)F)cc4)n3)cc2)c1 [F29] . Value?
A (80-100)

Requested read-out: YFM % Control (or Mortality) rating. Entry: CCc1ccccc1-c1ccccc1NC(=S)Nc1ccc(-c2ncn(-c3ccc(OC(F)(F)F)cc3)n2)cc1 [F4]
A (80-100)

###

test system: Corn Earworm (Helicoverpa zea, HELIZE) ("CEW"); test: Bioassays on CEW, 128-well diet tray assay; format: in vivo; conditions: 168 h, second instar larvae, 50 μg/cm^2 on artificial diet, 25° C., five to seven days, average of eight wells, read-out: CEW % Control (or Mortality) rating
Please go through the items and note down their mortality at 50 µg/cm2.

Could I get mortality at 50 µg/cm2 for every one of these entries?
1. Cc1ccc(C)n1-c1ccccc1NC(=S)Nc1ccc(-c2ncn(-c3ccc(OC(F)(F)F)cc3)n2)cc1
2. Cc1ccc(C(C)C)c(NC(=S)NCCCc2ccc(-c3ncn(-c4ccc(OC(F)(F)F)cc4)n3)cc2)c1
3. CC(C)c1ccccc1NC(=S)Nc1ccc(-c2ncn(-c3ccc(C(F)(F)F)cc3)n2)cc1

50 to 100%
50 to 100%
50 to 100%

For every record below, what is its mortality at 50 µg/cm2?
1. O=C(NCc1ccc(-c2ncn(-c3ccc(OC(F)(F)C(F)(F)F)cc3)n2)cc1)Nc1ccccc1-c1ccccc1
2. COc1ccc(NC(=S)Nc2ccc(-c3ncn(-c4ccc(OC(F)(F)F)cc4)n3)cc2)c(C)c1
3. CC(C)c1ccccc1NC(=O)NCc1ccc(-c2ncn(-c3ccc(OC(F)(F)F)cc3)n2)cc1
4. Cc1ccc(C(C)C)c(NC(=O)Nc2ccc(-c3ncn(-c4ccc(OC(F)(F)C(F)(F)F)cc4)n3)cc2)c1

1: 50 to 100%; 2: 50 to 100%; 3: 0 to 50%; 4: 50 to 100%

Can you give me mortality at 50 µg/cm2 for all of these, one by one?
1. CN(C)c1ccc(NC(=S)NCc2ccc(-c3ncn(-c4ccc(OC(F)(F)C(F)(F)F)cc4)n3)cc2)cc1
2. CC(C)c1ccccc1NC(=S)Nc1ccc(-c2ncn(-c3ccc(OC(F)(F)F)cc3)n2)cc1
3. CC(C)n1cnnc1-c1ccccc1NC(=O)Nc1ccc(-c2ncn(-c3ccc(OC(F)(F)F)cc3)n2)cc1

["0%", "50 to 100%", "0%"]

Respectfully, I request mortality at 50 µg/cm2 for each entry included below.
1. CC(C)n1cnnc1-c1ccccc1NC(=S)Nc1ccc(-c2ncn(-c3ccc(OC(F)(F)F)cc3)n2)cc1
2. CC(C)c1ccccc1NC(=O)NCc1ccc(-c2ncn(-c3ccc(OC(F)(F)C(F)(F)F)cc3)n2)cc1
3. COc1ccc(NC(=S)NCc2ccc(-c3ncn(-c4ccc(OC(F)(F)C(F)(F)F)cc4)n3)cc2)c(C)c1
4. COc1ccc(NC(=S)NCc2ccc(-c3ncn(-c4ccc(OC(F)(F)C(F)(F)F)cc4)n3)cc2)cc1
5. FC(F)(F)Oc1ccc(-n2cnc(-c3ccc(NC(=S)Nc4ccccc4-c4ccco4)cc3)n2)cc1
6. CCOc1ccc(NC(=S)Nc2ccc(-c3ncn(-c4ccc(OC(F)(F)F)cc4)n3)cc2)cn1

1. 0 to 50%
2. 50 to 100%
3. 50 to 100%
4. 0%
5. 50 to 100%
6. 0%
